Just for reference, ChEMBL document CHEMBL1201862 is where these values come from.

tested on: HCT-116; assay: NCI tumour cell line growth inhibition, 48 h
Activity calls are given as the source filed them. Cut-off read from the data, not from the text of the source: active = GI50 up to about 1.1 µM and inactive = higher.
Your reply should match one of these outcome classes. active, inactive

Solved entries:
COc1ccc(Cn2c(C)nc3c2C(=O)c2ccccc2C3=O)cc1	inactive
COc1ccc(-c2nc3ccccc3c(=S)n2OC(C)=O)cc1	inactive
O=C1C=Cc2cscc21	inactive
CCc1cccc(=O)c([O-])c1.CCc1cccc(=O)c([O-])c1.[Bi+3].[Cl-]	inactive
C=C1C[C@H]2C=Nc3cc(OCCCOc4cc5c(cc4OC)C(=O)N4CC(=C)C[C@H]4C=N5)c(OC)cc3C(=O)N2C1	active

Exercise: Which outcome was entered for the compound c1ccc(C(=NNc2cnc3ccccc3n2)c2ccccn2)cc1 in this test?
Solution: inactive
